Molecular target: PRMT5/MEP50 (Homo sapiens)
Sequence (O14744 2-637 limits assumed): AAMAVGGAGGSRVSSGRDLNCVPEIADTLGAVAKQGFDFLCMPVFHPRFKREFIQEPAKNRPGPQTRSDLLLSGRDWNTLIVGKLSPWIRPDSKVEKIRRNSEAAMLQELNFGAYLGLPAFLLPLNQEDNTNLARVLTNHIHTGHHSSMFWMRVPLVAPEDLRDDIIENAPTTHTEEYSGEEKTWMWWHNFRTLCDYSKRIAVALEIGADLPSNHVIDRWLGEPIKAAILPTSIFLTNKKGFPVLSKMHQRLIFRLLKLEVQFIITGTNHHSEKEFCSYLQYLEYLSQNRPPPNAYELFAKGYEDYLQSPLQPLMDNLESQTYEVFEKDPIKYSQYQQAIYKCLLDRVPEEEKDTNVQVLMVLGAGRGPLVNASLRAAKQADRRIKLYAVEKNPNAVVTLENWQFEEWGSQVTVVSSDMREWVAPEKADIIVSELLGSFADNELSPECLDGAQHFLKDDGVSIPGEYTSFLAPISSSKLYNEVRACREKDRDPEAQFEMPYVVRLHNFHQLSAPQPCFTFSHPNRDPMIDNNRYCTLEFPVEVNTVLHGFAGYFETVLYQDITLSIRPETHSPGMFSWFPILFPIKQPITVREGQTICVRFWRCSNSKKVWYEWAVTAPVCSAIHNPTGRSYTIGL
Sequence (Q9BQA1 2-342 partner limits assumed): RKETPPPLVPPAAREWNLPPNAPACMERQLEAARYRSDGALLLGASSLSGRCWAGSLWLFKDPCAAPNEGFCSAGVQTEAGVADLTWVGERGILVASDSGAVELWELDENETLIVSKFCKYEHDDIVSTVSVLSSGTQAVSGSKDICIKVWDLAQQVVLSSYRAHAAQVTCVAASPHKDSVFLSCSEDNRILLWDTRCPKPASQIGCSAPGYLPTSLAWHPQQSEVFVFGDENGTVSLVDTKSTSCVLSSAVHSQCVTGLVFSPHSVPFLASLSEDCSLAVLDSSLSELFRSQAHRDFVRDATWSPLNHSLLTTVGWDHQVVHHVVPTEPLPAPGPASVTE
Experiment: MTase-Glo methyl transferase assay, Method B (FL-Histone H2A, 1 µM MTA, 1 h pre-incubation)
Assay type: biochemical
Design: purchased Reaction Biology Corp RD-11-292
Details: read-out: PRMT5 MTase Glo Ki (nM, Meth. B)
Method: Method B: The PRMT5 inhibitory activity of test compounds was determined using the MTase-Glo™ assay (Promega), which monitors the product (S-adenosyl homocysteine or SAH) of methyltransferase reactions. The PRMT5 MTase-Glo assay was conducted in a 384-well white ProxiPlate (PerkinElmer) in a total volume of 16 µL. […] The light signal corresponding to the amount of SAH produced by the PRMT5 reaction was subsequently measured using an Envision multimode reader (PerkinElmer). […]
assay_metric: Ki (nM)

Solved entries (count: 4):
{"compound": "CCC(C1CCOCC1)N(Cc1ccc(C(F)(F)F)cn1)C(=O)c1ccc2nc(N)c(C)cc2c1 (stereo not drawn)", "Ki (nM)": 4.87}
{"compound": "Cc1cc2cc(C(=O)N(Cc3ccc(C(F)(F)F)cn3)C3CCCc4c[nH]nc43)ccc2nc1N (stereo not drawn)", "Ki (nM)": 7.14}
{"compound": "Cc1cc2cc(C(=O)N(Cc3ccc(C(F)(F)F)cn3)CC(C)C#N)ccc2nc1N (stereo not drawn)", "Ki (nM)": 5.62}
{"compound": "Cc1cc2cc(C(=O)N(Cc3ccc(C(F)(F)F)cn3)C3CCCC4OCCC43)ccc2nc1N (stereo not drawn)", "Ki (nM)": 4.8}

a: Cc1cc2cc(C(=O)N(Cc3ccc(C(F)(F)F)cn3)C3CCCc4nn(C)cc43)ccc2nc1N (stereo not drawn)
b: Cc1cc2cc(C(=O)N(Cc3ncccc3Br)CC(C)C)ccc2nc1N
c: Cc1cc2cc(C(=O)N(Cc3ccc(C(F)(F)F)cn3)Cc3cc4c([nH]c3=O)CCC4)ccc2nc1N
d: Cc1cc2cc(C(=O)N(Cc3ccc(C(F)(F)F)cn3)C3CC(C#N)C3)ccc2nc1N (stereo not drawn)
Challenge: Parameters: sort_field (Ki), sort_dir (desc). I'd appreciate it if you listed the labels in the requested order.
Response given: d, b, a, c
